target: PRMT5 (Homo sapiens); construct: purchased Viva (custom protein); experiment: PRMT5 biochemical IC50 assay with no cofactor; details: PRMT5, no cofactor; read-out: No Cofactor/rel IC50
pIC50: −log10 of the molar value.
Measured pIC50 of individual entries

In the examples that follow, each entry is paired with its recorded pIC50.
compound	assayValue
C[C@@H]1CC[C@@H]([C@H]2CC[C@@H](O)CC2)N(C(=O)C(=O)Nc2cncc(C(N)=O)c2)C1 (single isomer, unassigned)	< 6.30
Cc1ccc([C@H]2CC[C@H](C)CN2C(=O)C(=O)Nc2cncc(C(N)=O)c2)cn1 (single isomer, unassigned)	< 6.30

Next up:
QUERY: // returns reported pIC50 for input Cc1cc([C@H]2CC[C@H](C)CN2C(=O)C(=O)Nc2cncc(C(N)=O)c2)cc(C)c1O (single isomer, unassigned)
RESULT: < 6.30

###

Reported IC50 values follow for various compounds
molecular target: PRMT5 (Homo sapiens); construct: purchased Viva (custom protein); test: PRMT5 biochemical IC50 assay with MTA as cofactor; conditions: PRMT5, MTA as cofactor; read-out: MTA IC50

The following compounds have reported results that may help.
compound	assayValue
Cc1cc(NC(=O)C(=O)N2C[C@@H](C)CC[C@@H]2c2ccc3sc([C@H]4CCN(C)C(C)(C)C4)nc3c2)cnc1C (racemic) [Compound 1113]	< 50 nM
CNc1ccc([C@H]2CC[C@@H](C)CN2C(=O)C(=O)Nc2cnc(OC)c(C(N)=O)c2)cn1 (single isomer, unassigned)	> 500 nM

QUERY: Return reported IC50; argument: CCc1ccc([C@H]2CC[C@H](C)CN2C(=O)C(=O)Nc2cnc(N)c(C)c2)cn1 (single isomer, unassigned)
RESULT: > 500 nM

QUERY: Item Cc1cc(NC(=O)C(=O)N2C[C@@H](C)CC[C@@H]2c2cc3cn[nH]c3s2)cnc1N (single isomer, unassigned) has what recorded IC50?
RESULT: < 50 nM

QUERY: Fill blank: measured IC50 of the compound CCc1cc(NC(=O)C(=O)N2C[C@@H](C)CC[C@@H]2c2ccc3sc(C)nc3c2)cnc1N (single isomer, unassigned) is ____.
RESULT: < 50 nM

QUERY: Which IC50 reading was recorded for the compound CNc1nc2cc([C@H]3CC[C@H](C)CN3C(=O)C(=O)Nc3cnc(N)c(C)c3)ccc2s1 (single isomer, unassigned) ?
RESULT: < 50 nM

###

# key: entry, value: IC50
molecular target: PRMT5 (Homo sapiens, UniProt O14744); construct: purchased Viva (custom protein); test: PRMT5 biochemical IC50 assay with SAM as cofactor; details: PRMT5, SAM as cofactor; read-out: SAM IC50
Sequence (O14744 whole entry): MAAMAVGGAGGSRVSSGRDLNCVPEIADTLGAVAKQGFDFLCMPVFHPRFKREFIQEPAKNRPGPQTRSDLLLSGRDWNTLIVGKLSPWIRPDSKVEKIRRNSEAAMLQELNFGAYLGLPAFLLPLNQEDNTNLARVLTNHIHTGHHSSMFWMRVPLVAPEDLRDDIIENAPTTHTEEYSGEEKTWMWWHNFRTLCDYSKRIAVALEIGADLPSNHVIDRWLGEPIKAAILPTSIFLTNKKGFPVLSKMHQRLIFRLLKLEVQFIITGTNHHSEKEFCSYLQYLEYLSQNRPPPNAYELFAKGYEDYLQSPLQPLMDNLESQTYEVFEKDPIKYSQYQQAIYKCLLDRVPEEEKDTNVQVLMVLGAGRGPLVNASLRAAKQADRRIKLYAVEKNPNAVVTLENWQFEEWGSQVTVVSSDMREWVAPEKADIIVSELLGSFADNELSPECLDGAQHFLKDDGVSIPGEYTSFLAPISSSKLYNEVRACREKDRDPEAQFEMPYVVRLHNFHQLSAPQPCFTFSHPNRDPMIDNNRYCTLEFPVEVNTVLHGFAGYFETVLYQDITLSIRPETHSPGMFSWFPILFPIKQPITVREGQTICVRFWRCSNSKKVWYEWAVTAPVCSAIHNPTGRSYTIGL
Sequence (Q9BQA1 whole entry partner): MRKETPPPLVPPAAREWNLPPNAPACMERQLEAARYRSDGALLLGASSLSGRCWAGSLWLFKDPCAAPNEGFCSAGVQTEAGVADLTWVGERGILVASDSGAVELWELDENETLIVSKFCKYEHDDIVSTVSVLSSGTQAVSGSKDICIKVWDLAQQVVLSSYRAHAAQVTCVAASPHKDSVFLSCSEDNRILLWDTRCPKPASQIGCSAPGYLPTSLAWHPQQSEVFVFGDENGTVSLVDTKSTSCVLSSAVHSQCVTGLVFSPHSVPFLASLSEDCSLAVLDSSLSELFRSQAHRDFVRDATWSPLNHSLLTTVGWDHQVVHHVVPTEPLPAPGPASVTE

Recorded IC50, per entry:
compound	IC50
C[C@H]1CC[C@H](c2cccc(Cl)c2)N(C(=O)C(=O)Nc2cncc(C(N)=O)c2)C1 (single isomer, unassigned)	50 to 500 nM
CC(C)c1cc(NC(=O)C(=O)N2C[C@@H](C)CC[C@@H]2c2ccc(F)cc2)cnc1N	50 to 500 nM
CCc1cc(NC(=O)C(=O)N2C[C@@H](C)CC[C@@H]2c2cccc([C@@H]3CCCN(C)C3)c2)cnc1N	< 50 nM
CNS(=O)(=O)c1cccc([C@@H]2CC[C@@H](C)CN2C(=O)C(=O)Nc2cncc(C(N)=O)c2)c1 (racemic)	50 to 500 nM

QUERY: Please look up its IC50: "Cc1cc(NC(=O)C(=O)N2C[C@@H](C)CC[C@@H]2c2ccc3sc([C@@H]4CCN(C)C(C)(C)C4)nc3c2)cnc1C"
RESULT: < 50 nM

QUERY: Given the entry C[C@@H]1CC[C@@H](c2cccc(Cl)c2)N(C(=O)C(=O)Nc2cnc(N)c(C3CC3)c2)C1 (single isomer, unassigned) , report its measured IC50.
RESULT: > 500 nM

QUERY: For "CCc1cc(NC(=O)C(=O)N2C[C@@H](C)CC[C@@H]2c2ccc3sc(C4CCN(C)CC4)nc3c2)cnc1C" , what is its reported IC50?
RESULT: < 50 nM
